# assayedTarget: Hck (UniProt P08631)
# Sequence (P08631 whole entry, looked up): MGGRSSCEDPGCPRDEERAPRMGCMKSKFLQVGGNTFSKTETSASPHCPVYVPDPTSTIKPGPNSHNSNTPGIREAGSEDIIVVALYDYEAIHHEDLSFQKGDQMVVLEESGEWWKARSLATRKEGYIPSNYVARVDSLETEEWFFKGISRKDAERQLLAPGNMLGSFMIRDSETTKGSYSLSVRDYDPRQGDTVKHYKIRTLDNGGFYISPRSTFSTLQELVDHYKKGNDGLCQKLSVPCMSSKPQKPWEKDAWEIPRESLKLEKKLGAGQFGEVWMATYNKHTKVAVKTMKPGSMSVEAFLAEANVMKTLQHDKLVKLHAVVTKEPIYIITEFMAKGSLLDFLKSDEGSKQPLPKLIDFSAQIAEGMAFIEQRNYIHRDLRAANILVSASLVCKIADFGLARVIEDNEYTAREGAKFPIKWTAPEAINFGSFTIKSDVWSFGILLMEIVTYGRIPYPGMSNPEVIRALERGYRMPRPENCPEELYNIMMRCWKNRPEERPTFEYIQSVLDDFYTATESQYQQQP
# assayInfo: phosphorylation enrichment, bacterial display (enrichment ratio); higher = better substrate or ligand; peptides without Tyr show the background;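 note: 11-residue human phosphosite peptides and single-mutation variants displayed on the E. coli surface, counted by deep sequencing, each peptide's frequency after selection divided by its frequency in the unselected input library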;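 note: frequency after pTyr selection over input frequency; kinase dosed for 20-30% of maximal phosphorylation in three min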
The reader will find reported phosphorylation enrichment values listed item by item below.

- polymerSequence: "AIMSFYAALIN [RYR1_Y2426_D2431N]"
  assayedTarget: "Hck (UniProt P08631)"
  phosphorylation enrichment: 0.764
- polymerSequence: "IGEGTYGVVFK [CDK2_Y15_YF]"
  assayedTarget: "Hck (UniProt P08631)"
  phosphorylation enrichment: 4.9
- polymerSequence: "QRTMKYTTATE [MCCC1_Y41_G46E]"
  assayedTarget: "Hck (UniProt P08631)"
  phosphorylation enrichment: 0.966
- polymerSequence: "NQDRTYFESVR [SPEN_Y632_YF]"
  assayedTarget: "Hck (UniProt P08631)"
  phosphorylation enrichment: 0.573
- polymerSequence: "HEKKAYAFCGT [RPS6KA3_Y226_S227A]"
  assayedTarget: "Hck (UniProt P08631)"
  phosphorylation enrichment: 0.63
- polymerSequence: "FFDANCDGKEF [MAPRE2_Y162_Y162C_YF]"
  assayedTarget: "Hck (UniProt P08631)"
  phosphorylation enrichment: 0.58
- polymerSequence: "QHVPDYRQNVY [PCDHGA1_Y890]"
  assayedTarget: "Hck (UniProt P08631)"
  phosphorylation enrichment: 0.665
- polymerSequence: "CTIIHYNYMCN [TP53_Y234_T231I]"
  assayedTarget: "Hck (UniProt P08631)"
  phosphorylation enrichment: 0.521
- polymerSequence: "YEEDSYSHVMA [FDPS_Y388_I391V]"
  assayedTarget: "Hck (UniProt P08631)"
  phosphorylation enrichment: 0.606
- polymerSequence: "RLNWIYFKDQT [RS1_Y165_YF]"
  assayedTarget: "Hck (UniProt P08631)"
  phosphorylation enrichment: 1.02
- polymerSequence: "HNLFSYPTKHE [MYO3A_Y1396_YF]"
  assayedTarget: "Hck (UniProt P08631)"
  phosphorylation enrichment: 0.874
- polymerSequence: "QNTADYFDLFG [PTPN11_Y62_G60A_YF]"
  assayedTarget: "Hck (UniProt P08631)"
  phosphorylation enrichment: 0.722
- polymerSequence: "RRNVYYYSYLL [PTEN_Y177_Y174N]"
  assayedTarget: "Hck (UniProt P08631)"
  phosphorylation enrichment: 1.13
- polymerSequence: "KSRQIYDAFIM [GRK3_Y109_R104K_YF]"
  assayedTarget: "Hck (UniProt P08631)"
  phosphorylation enrichment: 10.4
- polymerSequence: "AAAAMYTFLPD [MYORG_Y36]"
  assayedTarget: "Hck (UniProt P08631)"
  phosphorylation enrichment: 4.23
- polymerSequence: "SLALFYRNVYH [RBL1_Y792_K794N]"
  assayedTarget: "Hck (UniProt P08631)"
  phosphorylation enrichment: 0.524
- polymerSequence: "VCRHNYGVVES [HLA-DRB1_Y112_Y107V]"
  assayedTarget: "Hck (UniProt P08631)"
  phosphorylation enrichment: 0.484
- polymerSequence: "CTTIHYNCMCN [TP53_Y234_Y236C]"
  assayedTarget: "Hck (UniProt P08631)"
  phosphorylation enrichment: 0.475
- polymerSequence: "KEDSVYGSQSV [NFKB2_Y868_A867V]"
  assayedTarget: "Hck (UniProt P08631)"
  phosphorylation enrichment: 0.984
- polymerSequence: "SFGENYDNSKS [MAN1B1_Y60]"
  assayedTarget: "Hck (UniProt P08631)"
  phosphorylation enrichment: 0.408
- polymerSequence: "KQQEIYQELTQ [CD209_Y239]"
  assayedTarget: "Hck (UniProt P08631)"
  phosphorylation enrichment: 6.43
- polymerSequence: "VAMDDYLKNVM [LRRK2_Y707]"
  assayedTarget: "Hck (UniProt P08631)"
  phosphorylation enrichment: 0.418
- polymerSequence: "DGDTRYSTFSE [TKTL1_Y318]"
  assayedTarget: "Hck (UniProt P08631)"
  phosphorylation enrichment: 0.559
- polymerSequence: "LSGFCYRLSDQ [PDCD6_Y124_G123C]"
  assayedTarget: "Hck (UniProt P08631)"
  phosphorylation enrichment: 0.804
- polymerSequence: "LASSEYPVQRR [GALK1_Y236_R239Q]"
  assayedTarget: "Hck (UniProt P08631)"
  phosphorylation enrichment: 0.761
- polymerSequence: "LFDHIYTTQSD [RET_Y928]"
  assayedTarget: "Hck (UniProt P08631)"
  phosphorylation enrichment: 5.93
- polymerSequence: "DLRTGYSVPYG [TGM1_Y370_Y365D]"
  assayedTarget: "Hck (UniProt P08631)"
  phosphorylation enrichment: 0.459
- polymerSequence: "IATAIYSGDKI [UGGT2_Y823]"
  assayedTarget: "Hck (UniProt P08631)"
  phosphorylation enrichment: 2.38
- polymerSequence: "WNRDKYAATTT [TRIM39_Y439_G436R]"
  assayedTarget: "Hck (UniProt P08631)"
  phosphorylation enrichment: 0.375
- polymerSequence: "PVQAASQKVVA [HBB_Y131_Y131S]"
  assayedTarget: "Hck (UniProt P08631)"
  phosphorylation enrichment: 0.426
- polymerSequence: "CCKNRYDKDKP [THAP1_Y14_G9C]"
  assayedTarget: "Hck (UniProt P08631)"
  phosphorylation enrichment: 0.384
- polymerSequence: "VGTKRYRAPEV [ACVRL1_Y375_M376R]"
  assayedTarget: "Hck (UniProt P08631)"
  phosphorylation enrichment: 0.305
- polymerSequence: "SLDLSYFHTSS [EMD_Y181_P183H_YF]"
  assayedTarget: "Hck (UniProt P08631)"
  phosphorylation enrichment: 0.559
- polymerSequence: "CTTIHNNYMCN [TP53_Y234_Y234N]"
  assayedTarget: "Hck (UniProt P08631)"
  phosphorylation enrichment: 0.423
- polymerSequence: "TKQLTYEEQYL [PIK3C3_Y310_D314Y]"
  assayedTarget: "Hck (UniProt P08631)"
  phosphorylation enrichment: 0.524
- polymerSequence: "PPGRSYSPCDY [TNS1_Y793_Y796C]"
  assayedTarget: "Hck (UniProt P08631)"
  phosphorylation enrichment: 0.586
- polymerSequence: "GHMYAYDWISI [BEST1_Y227_L224M]"
  assayedTarget: "Hck (UniProt P08631)"
  phosphorylation enrichment: 2.87
- polymerSequence: "RTCSSYTIEKI [PARP15_Y520_A521T]"
  assayedTarget: "Hck (UniProt P08631)"
  phosphorylation enrichment: 0.726
- polymerSequence: "RKGIRYLTSGL [PIGA_Y82]"
  assayedTarget: "Hck (UniProt P08631)"
  phosphorylation enrichment: 0.645
- polymerSequence: "EQKKYYNAMKN [SCN5A_Y1495_K1500N]"
  assayedTarget: "Hck (UniProt P08631)"
  phosphorylation enrichment: 0.405
- polymerSequence: "GGCQEYTGAPF [NAXD_Y85_YF]"
  assayedTarget: "Hck (UniProt P08631)"
  phosphorylation enrichment: 0.506
- polymerSequence: "HDRNTYEKYLG [TF_Y666]"
  assayedTarget: "Hck (UniProt P08631)"
  phosphorylation enrichment: 1.4
- polymerSequence: "PLDGEYFTLPI [TP53_Y327_Q331P]"
  assayedTarget: "Hck (UniProt P08631)"
  phosphorylation enrichment: 15.7
- polymerSequence: "HAKKNYGNSSV [HDX_Y197]"
  assayedTarget: "Hck (UniProt P08631)"
  phosphorylation enrichment: 0.387
- polymerSequence: "GVFSRYFTTFD [CLCA1_Y661_YF]"
  assayedTarget: "Hck (UniProt P08631)"
  phosphorylation enrichment: 0.661
- polymerSequence: "CTTIHYNFMFN [TP53_Y234_C238F_YF]"
  assayedTarget: "Hck (UniProt P08631)"
  phosphorylation enrichment: 0.569
- polymerSequence: "FFRDGYMPRQF [GSS_Y270_YF]"
  assayedTarget: "Hck (UniProt P08631)"
  phosphorylation enrichment: 0.455
- polymerSequence: "CTTILYNYMCN [TP53_Y234_H233L]"
  assayedTarget: "Hck (UniProt P08631)"
  phosphorylation enrichment: 1.14
- polymerSequence: "RRFVFYFSFLL [PTEN_Y177_YF]"
  assayedTarget: "Hck (UniProt P08631)"
  phosphorylation enrichment: 0.899
- polymerSequence: "GDYYRYLAEVA [YWHAG_Y133]"
  assayedTarget: "Hck (UniProt P08631)"
  phosphorylation enrichment: 1.31
- polymerSequence: "SQQTYCRVSNM [ABCD1_Y181_Y181C]"
  assayedTarget: "Hck (UniProt P08631)"
  phosphorylation enrichment: 1.41
- polymerSequence: "SHNELYYEEAE [VANGL1_Y344]"
  assayedTarget: "Hck (UniProt P08631)"
  phosphorylation enrichment: 0.626
- polymerSequence: "FEEDSYSHVMA [FDPS_Y388_I391V_YF]"
  assayedTarget: "Hck (UniProt P08631)"
  phosphorylation enrichment: 0.646
